Cited source for all entries: paper PMC5628898

experiment: Naringenin concentration in milk of breastfeeding mothers on naringenin-restricted diet, before and after 250 ml red grapefruit juice (HPLC after deconjugation); format: in vivo; details: female, human, in vivo, Mean naringenin concentration in human milk
Measurement Name: concentration at 4 h (nM)
# unit: nM | format: bare number

*Q* Retrieve concentration at 4 h measured for O=C1C[C@@H](c2ccc(O)cc2)Oc2cc(O)cc(O)c21 and print it.
*A* 908

---

assay: Naringenin concentration in milk of breastfeeding mothers on naringenin-restricted diet, before and after 250 ml red grapefruit juice (HPLC after deconjugation); type: in vivo; conditions: female, human, in vivo, Mean naringenin concentration in human milk
Measurement Name: concentration at 2 h (nM)
# unit: nM | format: bare number

*Q* Retrieve concentration at 2 h measured for O=C1C[C@@H](c2ccc(O)cc2)Oc2cc(O)cc(O)c21 and print it.
*A* 651
